target: T1, trastuzumab (Herceptin); assay: dissociation ELISA on covalently immobilised trastuzumab, 1 uM 1HE in the buffer
T1 construct: also called Tmab; not shown: the constant regions
TEST READOUT: T1/2 (h)
I only need the number, in h, no unit after it.

See these solved cases before continuing.
2F9 (VHH, also called 1HE mutant 2F9) VHH: EVQLVESGGGLVQAGDSLTLSCAASGRTFSSVAMGWFRQAPGKERKFVANISWNGDSTYYTDSVKGRFTISRDNAKNTVYLQMSSLKPEDTAVYYCAADVRWTGEGHRADYWGQGTQVTVSS: 55.5
2A4 (VHH, also called 1HE mutant 2A4) VHH: EVQLVESGGGLVQAGDSLTLSCAASGRTFSSVAMGWFRQAPGKERKFVANISWNGDSAYYTDSVKGRFTISRDNAKNTVYLQMSSLKPEDTAVYYCAADVRWTGDGHRADYWGQGTQVTVSS: 187

Continue with the binder presented below.
Challenge: Respond only with T1/2 recorded for 2C4 (VHH, also called 1HE mutant 2C4) VHH: EVQLVESGGGLVQAGDSLTLSCAASGRTFSSVAMGWFRQAPGKERKFVANISWNGDSTYYTDSVKGRFTISRDNAKNTVYLQMSSLKPEDTAVYYCAADVRWAGDGHRADYWGQGTLVTVSS
Response given: 84.1
